- Test system: MES-SA/MX2 cells
- Test Protocol: Cytotoxicity in panel of MDR cell lines, MES-SA/MX2 (72 h and 144 h)
- Assay type: cell-based, human
- Test Context: Homo sapiens, 72 h incubation, read-out: MES-SA/MX2 IC50 72 h
The compounds listed here are annotated with their IC50.
Readout Type: IC50 (nM)

- Compound: "CCCCCCN(C(=O)[C@@H](NC(=O)[C@H]1CCCCN1C)[C@@H](C)CC)[C@H](C[C@@H](OC(C)=O)c1nc(C(=O)N[C@@H](Cc2ccc(N)c(F)c2)CC(C)(C)C(=O)O)cs1)C(C)C [IVvB]"
  Test Target: "MES-SA/MX2 cells"
  Unit Label: "nM"
  Censoring Qualifier: "="
  Value Reported: 0.0456
- Compound: "CCCCCCN(C(=O)[C@@H](NC(=O)[C@H]1CCCCN1C)[C@@H](C)CC)[C@H](C[C@@H](OC(C)=O)c1nc(C(=O)NC(Cc2ccc(N)c(O)c2)CC(C)(C)C(=O)O)cs1)C(C)C (some centres unmarked) [IVx]"
  Test Target: "MES-SA/MX2 cells"
  Unit Label: "nM"
  Censoring Qualifier: ">"
  Value Reported: 100
- Compound: "C#CCCCON(C(=O)[C@@H](NC(=O)[C@H]1CCCCN1C)[C@@H](C)CC)[C@H](C[C@@H](OC(C)=O)c1nc(C(=O)N[C@@H](Cc2ccccc2)CC(C)(C)C(=O)O)cs1)C(C)C [Vc]"
  Test Target: "MES-SA/MX2 cells"
  Unit Label: "nM"
  Censoring Qualifier: "="
  Value Reported: 0.0895
- Compound: "C#CCCCCN(C(=O)[C@@H](NC(=O)[C@H]1CCCCN1C)[C@@H](C)CC)[C@H](C[C@@H](OC(C)=O)c1nc(C(=O)N[C@@H](Cc2ccc(N)cc2)C[C@H](C)C(=O)O)cs1)C(C)C [IVg]"
  Test Target: "MES-SA/MX2 cells"
  Unit Label: "nM"
  Censoring Qualifier: "="
  Value Reported: 0.838
- Compound: "[2H]c1cc(C[C@@H](CC(C)(C)C(=O)O)NC(=O)c2csc([C@@H](C[C@H](C(C)C)N(CCCCC#C)C(=O)[C@@H](NC(=O)[C@H]3CCCCN3C)[C@@H](C)CC)OC(C)=O)n2)cc([2H])c1N [IVr]"
  Test Target: "MES-SA/MX2 cells"
  Unit Label: "nM"
  Censoring Qualifier: "="
  Value Reported: 0.151
